System: CAKI-1 renal
assay-explanation: NCI tumour cell line growth inhibition, 48 h; in the data active means GI50 below about 0.43 µM; inactive means the rest
Classes used: active, inactive

# molecule, cat
measured = [
    ("COC1/C=C/C(C)C(C(C)C(OC)C(C)CCC(=O)C(C)C(C/C=C/N(C)C=O)OC)OC(=O)/C=C/C=C(\\C)CC(OC)CC2=CC(=O)O[C@H](C2)C(C)C(OC)CC(OC)/C=C/C(C)C(OC)C1 (stereo partly drawn)", "active"),
    ("N#CCCN(CCCN(CCCN(C(=O)Nc1ccccc1)c1ccccc1)C(=O)Nc1ccccc1)C(=O)Nc1ccccc1", "inactive"),
    ("COc1cc(Nc2c(C#N)cnc3cc(OCCCN4CCN(C)CC4)c(OC)cc23)c(Cl)cc1Cl", "inactive"),
    ("COc1ccc(/C=C/C(=O)c2ccc(O)c(CN3CCN(c4cc5c(cc4F)c(=O)c(C(=O)O)cn5C4CC4)CC3)c2)cc1", "inactive"),
    ("CCN(Cc1ccc(F)cc1)c1ccc(CO)c(F)c1", "inactive"),
    ("CN[C@H](C#Cc1c(F)ccc2c1/C(=C/c1[nH]ccc1OC)C(=O)N2)CO", "active"),
    ("O=S(=O)(Nc1ccc(Br)c(Cl)c1)c1ccc(-c2cnc(C3CC3)o2)cc1", "inactive"),
    ("Cc1cc(NCCN(C(C)C)C(C)C)nc(/N=C(\\N)Nc2ccc(Cl)c(C(F)(F)F)c2)n1", "inactive"),
    ("NC(=O)c1ccc(I)c(N=O)c1", "inactive"),
    ("CC1OC(n2c3ccccc3c3c4c(c5c6ccccc6[nH]c5c32)C(=O)N(CCN[C@@H]2CCC[C@H]2N)C4=O)CC(O)C1O (stereo partly drawn)", "inactive"),
    ("Cc1cc(O)c(C2=NN(c3ccc(S(N)(=O)=O)cc3)C(c3ccccc3Cl)C2)cc1Cl (stereo not drawn)", "inactive"),
    ("Cc1ccc(C(CC(=O)c2ccccc2)C2C(=O)NC(=O)NC2=O)cc1 (stereo not drawn)", "inactive"),
    ("C=C1/C(=C\\C=C2/CCC[C@]3(C)[C@@H]([C@H](C)CCCC(C)(C)O)CC[C@@H]23)C[C@@H](OC(=O)CBr)C[C@@H]1O", "inactive"),
]

====

System: ACHN renal
assay-explanation: NCI tumour cell line growth inhibition, 48 h
Let's look at some compounds and their measured TGI.

# compound, TGI
measured = [
    ("CC12CC3OC(=O)C1COC14OC5(C2C1=O)C(O)(CCC1C4CC(O)C2(O)CC=CC(=O)C12C)C(=O)OC35C (stereo not given)", "> 100 µM"),
    ("O=c1c2nc3ccccc3c(=O)n2ncn1-c1ccccc1Cl", "> 100 µM"),
    ("CNC(=O)c1cccc2cc(Oc3ccnc4cc(OCC5(N)CC5)c(OC)cc34)ccc12", "4.48 µM"),
    ("COc1ccc(-c2nc(-c3ccccc3)c(-c3ccccc3)[nH]2)cc1OC1CCCC1", "> 100 µM"),
    ("CCOC(=O)Cn1c(=O)c2nc(SC)sc2n(CC)c1=S", "> 100 µM"),
]

====

Reported TGI values for a set of compounds
Test system: RXF-631 renal
assay-explanation: NCI tumour cell line growth inhibition, 48 h

# compound, TGI
data = [
    ("C[C@]12CCC(=O)C=C1CC[C@@H]1C2CC[C@]2(C)Nc3c(cnn3-c3ccccc3)CC12 (stereo partly specified)", "> 100 µM"),
    ("COC(=O)c1ccccc1OCc1cc(=O)oc2ccc(C)cc12", "> 100 µM"),
    ("COc1cc(NC(C)CCCN)c2ncccc2c1 (stereo unspecified)", "> 100 µM"),
    ("C1=CC=C2NCCCCCCCNC3=CC=CC=CC3=NCCCCCCCN=C2C=C1", "25.7 µM"),
    ("O=C(OCN1C(=O)C2C3C=CC(C2C1=O)C1C2C(=O)N(COC(=O)C4CCCN4)C(=O)C2C31)C1CCCN1 (stereo unspecified)", "> 100 µM"),
    ("CCC12CCCN(Cc3ccccc3)C1c1c(n(C)c3ccccc13)C(C(=O)OC)C2 (stereo unspecified)", "> 239 µM"),
]
